Assay: recombinant barcode read abundance after kanamycin selection (control-corrected) (log10(CPM+1)); higher = more efficient recombination; sequences stand for … in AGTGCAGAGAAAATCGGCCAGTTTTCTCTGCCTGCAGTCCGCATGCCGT…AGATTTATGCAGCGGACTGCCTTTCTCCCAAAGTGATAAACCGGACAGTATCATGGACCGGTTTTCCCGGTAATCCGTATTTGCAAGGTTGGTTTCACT; site = the 11-nt target;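 note: IS621 recombinase and bridge RNA in Escherichia coli cells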
For each of the sequences below, state its recombinant barcode read abundance (log10).
Give bare numbers.

>  <sequence.code>
AGTCTAGCTTGGGTTCTAACCTGTTGCCC (site AGTCTAGCTAG)

>  <observed.measurement>
0.421

$$$$
>  <sequence.code>
TGGAACACTTGGGTTCTAACCTGTTGCCT (site TGGAACACTAG)

>  <observed.measurement>
0.98

$$$$
>  <sequence.code>
CTACATCCTTGGGTTCTAACCTGTTGCTT (site CTACACCCTAA)

>  <observed.measurement>
0.157

$$$$
>  <sequence.code>
TGAAAGTCTTGGGTTCTAACCTGTTGCCT (site TGAAAGTCTAG)

>  <observed.measurement>
0.727

$$$$
>  <sequence.code>
GTGTGGCCTTGGGTTCTAACCTGTTGCTT (site GAGTGCCCTAA)

>  <observed.measurement>
0.107

$$$$

// each listed sequence needs a value for recombinant barcode read abundance (log10)
1. GCGGATCCTTGGGTTCTAACCTGTTGCCT (site GCGTATCCTAG)
2. CACTTATCTTGGGTTCTAACCTGTTGCCT (site CACTTATCTAG)
3. TGTAATGCTTGGGTTCTAACCTGTTGCCT (site TGTAATACTAG)
4. CGCCCTACTTGGGTTCTAACCTGTTGCCT (site CGACCTGCTAG)

1: 1.05; 2: 0.549; 3: 0.0123; 4: 0.236

Give its recombinant barcode read abundance (log10) value. Item: CAAGCACCTTGGGTTCTAACCTGTTGCTT (site CAATCACCTAA)
0.338
